This collection of values is drawn from the supplement of paper PMC8269313.

tested on: 4T1; assay: % inhibition of 4T1 cell number vs DMSO control; higher = stronger growth inhibition; details: 1 µM; 3 days; substrate: gelatin
Reported % inhibition of 4T1 cell number values follow for various compounds
MEASURED_PROPERTY: % inhibition of 4T1 cell number (%)

[[record]]
compound = "O=C(Nc1cc(C(F)(F)F)cc(C(F)(F)F)c1)c1cc(Cl)ccc1O"
measurement = 90.6

[[record]]
compound = "COc1cc2ncnc(Nc3ccc(Oc4ccccc4)cc3)c2cc1OC"
measurement = -6.86

[[record]]
compound = "O=C1Nc2ccc(Cl)cc2/C1=C/c1cc(Cl)c(O)c(Cl)c1 [PKR Inhibitor, Negative Control]"
measurement = -80.4

[[record]]
compound = "Cn1cnc2cc3c(Nc4cccc(Br)c4)ncnc3cc21"
measurement = -49.9

[[record]]
compound = "O=C(O)C=Cc1cc(Br)c(Br)c(Br)c1Br"
measurement = 27.7

[[record]]
compound = "CCOc1nc(NC(=O)Cc2cc(OC)ccc2OC)cc(N)c1C#N"
measurement = 11.6

[[record]]
compound = "O=c1[nH][nH]c2nnc(-c3c(-c4ccccc4)nn4ccccc34)cc12 [ERK Inhibitor II, Negative control]"
measurement = -11.4

[[record]]
compound = "COc1cccc(-c2cc(=O)c3ccccc3o2)c1N"
measurement = -1.31

[[record]]
compound = "CCC(=O)Nc1ccc2ncnc(Nc3cccc(Br)c3)c2c1"
measurement = -108


---

Property: % inhibition of 4T1 cell number; scope: individual compounds
system: 4T1; assay: % inhibition of 4T1 cell number vs DMSO control; higher = stronger growth inhibition; conditions: 1 µM; 3 days; substrate: plastic
MEASURED_PROPERTY: % inhibition of 4T1 cell number (%)

[[record]]
compound = "NC(=O)Nc1sc(-c2ccccc2)cc1C(N)=O [IKK-2 Inhibitor VI]"
measured_property = "% inhibition of 4T1 cell number"
measurement = -60

[[record]]
compound = "CCN(CC)CCNC(=O)c1c(C)[nH]c(/C=C2\\C(=O)Nc3ccc(Cl)cc32)c1C"
measured_property = "% inhibition of 4T1 cell number"
measurement = 74.3

[[record]]
compound = "N#C/C(=C(/N)Sc1ccccc1N)c1cccc(C(O)c2ccncc2)c1 (stereo not given) [MEK Inhibitor I]"
measured_property = "% inhibition of 4T1 cell number"
measurement = -71.7

[[record]]
compound = "CC(C)n1cnc2c(NCc3ccccc3)nc(NCCCO)nc21 [Bohemine]"
measured_property = "% inhibition of 4T1 cell number"
measurement = -30.7

[[record]]
compound = "Cc1nc2cc3nc(-c4cccs4)cnc3cc2n1C"
measured_property = "% inhibition of 4T1 cell number"
measurement = 37.6

[[record]]
compound = "O=C(c1cc2cc(O)ccc2[nH]1)c1cc2cc(O)ccc2[nH]1 [Flt-3 Inhibitor II]"
measured_property = "% inhibition of 4T1 cell number"
measurement = -36.1

[[record]]
compound = "Nc1[nH]nc2nnc(-c3c(-c4ccccc4)nn4ccccc34)cc12"
measured_property = "% inhibition of 4T1 cell number"
measurement = -58.3

[[record]]
compound = "O=C(Nc1ccc(-c2cn[nH]c2)cc1)C1COc2ccccc2O1 (stereo not given) [Rho Kinase Inhibitor V]"
measured_property = "% inhibition of 4T1 cell number"
measurement = -3.09

[[record]]
compound = "Oc1ccc(-c2nc(-c3ccc(F)cc3)c(-c3ccncc3)[nH]2)cc1"
measured_property = "% inhibition of 4T1 cell number"
measurement = 30.1

[[record]]
compound = "CCOc1nc(NC(=O)Cc2cc(OC)ccc2OC)cc(N)c1C#N [JNK Inhibitor VIII]"
measured_property = "% inhibition of 4T1 cell number"
measurement = -42.5


---

test system: 4T1; assay: % inhibition of 4T1 cell number vs DMSO control; higher = stronger growth inhibition; conditions: 1 µM; 3 days; substrate: plastic
Where a name gives a salt, the structure may show the parent alone.
MEASURED_PROPERTY: % inhibition of 4T1 cell number (%)

[[record]]
compound = "O=c1c2ccccc2[nH]c(=S)n1CCN1CCC(=C(c2ccc(F)cc2)c2ccc(F)cc2)CC1"
measured_property = "% inhibition of 4T1 cell number"
measurement = -33.4

[[record]]
compound = "Fc1ccc(-c2nc3n(c2-c2ccncc2)CCS3)cc1"
measured_property = "% inhibition of 4T1 cell number"
measurement = 9.54

[[record]]
compound = "NCCCn1cc(C2=C(c3c[nH]c4ccccc34)C(=O)NC2=O)c2ccccc21 [Bisindolylmaleimide III, Hydrochloride]"
measured_property = "% inhibition of 4T1 cell number"
measurement = 37.2

[[record]]
compound = "COc1ccc(-c2cnc3c(-c4ccsc4)cnn3c2)cc1"
measured_property = "% inhibition of 4T1 cell number"
measurement = -14.5

[[record]]
compound = "COc1cc2ncnc(Nc3ccc(Cl)cc3Cl)c2cc1OC"
measured_property = "% inhibition of 4T1 cell number"
measurement = 36.1

[[record]]
compound = "c1ccc2c(-c3ccncc3)c[nH]c2c1"
measured_property = "% inhibition of 4T1 cell number"
measurement = -78.9

[[record]]
compound = "COc1ccc2c(c1)c(C1=C(c3c[nH]c4ccccc34)C(=O)NC1=O)cn2CCCN(C)C"
measured_property = "% inhibition of 4T1 cell number"
measurement = -63.4

[[record]]
compound = "O=C(Nc1cccc(Nc2nccc(Nc3cccc(C(F)(F)F)c3)n2)c1)C1CC1"
measured_property = "% inhibition of 4T1 cell number"
measurement = 63.6


---

tested on: 4T1; experiment: % inhibition of 4T1 cell number vs DMSO control; higher = stronger growth inhibition; details: 1 µM; 3 days; substrate: plastic
Counter-ions that a name gives are not always drawn.
This listing pairs molecules with measured % inhibition of 4T1 cell number.
MEASURED_PROPERTY: % inhibition of 4T1 cell number (%)

[[record]]
molecule = "Cc1cc(C)c(/C=C2\\C(=O)Nc3ccccc32)[nH]1"
system = "4T1"
measurement = 2.08

[[record]]
molecule = "NCCNc1ncc(C(N)=O)c(Nc2cccc(C(F)(F)F)c2)n1"
system = "4T1"
measurement = -12.4

[[record]]
molecule = "CCCCn1c2ccc(O)cc2c2c3c(c(-c4ccccc4Cl)cc21)C(=O)NC3=O"
system = "4T1"
measurement = 57.9

[[record]]
molecule = "O=S(=O)(NCCNC/C=C/c1ccc(Br)cc1)c1cccc2cnccc12 [H-89, Dihydrochloride]"
system = "4T1"
measurement = -37.5


---

% inhibition of 4T1 cell number overview
test system: 4T1; assay: % inhibition of 4T1 cell number vs DMSO control; higher = stronger growth inhibition; settings: 1 µM; 3 days; substrate: plastic
MEASURED_PROPERTY: % inhibition of 4T1 cell number (%)

[[record]]
molecule = "CC(C)(C)c1ccc(S(=O)(=O)Nc2ccc(-n3ccnc3)cc2)cc1"
measurement = 39.4

[[record]]
molecule = "CN1C(=O)C(c2c[nH]c3ccccc23)=C(c2c[nH]c3ccccc23)C1=O [Bisindolylmaleimide V]"
measurement = 50.7

[[record]]
molecule = "CCCOc1ccc(/C=C2/SC(=O)NC2=O)cc1"
measurement = -1.33

[[record]]
molecule = "COc1ccc(OC)c2c(=S)c3ccccc3[nH]c12"
measurement = -67


---

tested on: 4T1; assay: % inhibition of 4T1 cell number vs DMSO control; higher = stronger growth inhibition; conditions: 1 µM; 3 days; substrate: lung fibroblast-derived matrix
# % inhibition of 4T1 cell number values compiled below
MEASURED_PROPERTY: % inhibition of 4T1 cell number (%)

[[record]]
molecule = "CCCCCCCCCCCCCCCCn1cc[n+](Cc2ccccc2)c1C"
measurement = 52.8

[[record]]
molecule = "CC(C)(C)c1ccc(S(=O)(=O)Nc2ccc(-n3ccnc3)cc2)cc1"
measurement = 90.5

[[record]]
molecule = "CC[n+]1c(/C=C/N(C)c2ccccc2)n(-c2ccccc2)c2ccc(-c3nc4ccccc4s3)cc21"
measurement = -4.76

[[record]]
molecule = "O=C1Cc2c([nH]c3ccc(Br)cc23)-c2ccccc2N1"
measurement = 23.3

[[record]]
molecule = "Cc1nc2cc3nc(-c4cccs4)cnc3cc2n1C"
measurement = -7.74

[[record]]
molecule = "Nc1nccc(-c2c(-c3ccc(F)cc3)ncn2C2CCNCC2)n1"
measurement = 11.7

[[record]]
molecule = "Nc1nc(Nc2ccc(S(N)(=O)=O)cc2)nn1C(=S)Nc1c(F)cccc1F"
measurement = 1.23

[[record]]
molecule = "O=C1c2ccccc2-c2nc3nnnn3nc21"
measurement = -19.8

[[record]]
molecule = "Oc1cccc(-c2nc(N3CCOCC3)c3oc4ncccc4c3n2)c1"
measurement = -18.2

[[record]]
molecule = "NC(=O)Nc1sc(-c2ccccc2)cc1C(N)=O"
measurement = -16

[[record]]
molecule = "O=c1c2ccccc2[nH]c(=S)n1CCN1CCC(=C(c2ccc(F)cc2)c2ccc(F)cc2)CC1"
measurement = -1.99

[[record]]
molecule = "COc1ccc2nc3n[nH]c(C)c3c(NCCOCCO)c2c1"
measurement = 1.01

[[record]]
molecule = "Nc1ccc(-c2cccc3c(=O)cc(N4CCOCC4)oc23)cc1"
measurement = -12

[[record]]
molecule = "CC(=O)c1ccc(N2CCOCC2)cc1O"
measurement = -5.23

[[record]]
molecule = "O=C1Cc2c([nH]c3ccc([N+](=O)[O-])cc23)-c2ccccc2N1"
measurement = -3.92

[[record]]
molecule = "c1nc2c(NC3CCCCC3)nc(Nc3ccc(N4CCOCC4)cc3)nc2[nH]1"
measurement = 7.75

[[record]]
molecule = "Nc1n[nH]c(N)c1N=Nc1ccc(O)cc1"
measurement = -8.89

[[record]]
molecule = "CC[C@@H](CO)Nc1nc(NCc2ccc(-c3ccccn3)cc2)c2ncn(C(C)C)c2n1 [CR8, (S)-Isomer]"
measurement = 60.2

